# assay target: Dopamine beta hydroxylase (Homo sapiens)
# Construct: 125 μl of plasma; tissue Instituto Português do Sangue Transplantação; host or cells: human plasma from healthy donors
# assay: Dopamine beta hydroxylase activity in human plasma
# Assay type: biochemical
# condition parameters: inhibitor 0.01 μM
Listing of entries alongside the reported Plasma (0.01 μM), activity in % of control.
readout label: Plasma (0.01 μM), activity in % of control

>>> result("CS(=O)(=O)C1CCN(C(=O)Cc2[nH]c(=S)n3c2C[C@H](c2c(F)ccc(Br)c2F)C3)C1 (stereo partly shown)")
"88.3 % of control"
>>> result("Cn1c(CC(=O)NCC2CCOCC2)c2n(c1=S)C[C@H](c1c(F)ccc(Cl)c1F)C2")
"40.8 % of control"
>>> result("O=C(Cc1[nH]c(=S)n2c1C[C@H](c1c(F)ccc(Br)c1F)C2)NC1CCS(=O)(=O)CC1")
"55.7 % of control"
>>> result("Cn1c(CCO)c2n(c1=S)C[C@H](c1c(F)ccc(Br)c1F)C2")
"86.8 % of control"

###

# assay target: DβH (Homo sapiens, UniProt P09172)
# Construct: cellular homogenate (75 μg total protein); host or cells: SK-N-SH cells (homogenate)
# Sequence (P09172 whole entry): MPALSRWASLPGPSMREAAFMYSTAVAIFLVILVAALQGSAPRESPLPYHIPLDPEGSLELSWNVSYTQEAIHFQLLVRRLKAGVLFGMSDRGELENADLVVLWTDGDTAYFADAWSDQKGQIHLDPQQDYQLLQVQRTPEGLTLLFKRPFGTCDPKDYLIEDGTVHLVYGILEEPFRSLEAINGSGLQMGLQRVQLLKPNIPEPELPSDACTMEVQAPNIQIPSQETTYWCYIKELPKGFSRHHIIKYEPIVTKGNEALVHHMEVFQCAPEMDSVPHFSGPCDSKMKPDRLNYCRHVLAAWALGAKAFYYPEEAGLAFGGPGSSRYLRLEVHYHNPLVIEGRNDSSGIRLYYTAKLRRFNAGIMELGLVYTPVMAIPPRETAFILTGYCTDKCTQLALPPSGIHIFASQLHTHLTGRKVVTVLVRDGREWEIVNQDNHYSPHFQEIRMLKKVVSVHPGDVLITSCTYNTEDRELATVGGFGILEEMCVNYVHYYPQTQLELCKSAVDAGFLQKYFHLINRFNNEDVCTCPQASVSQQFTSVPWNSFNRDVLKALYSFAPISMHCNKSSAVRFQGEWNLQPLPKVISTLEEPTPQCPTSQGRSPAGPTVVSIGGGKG
# assay: DβH inhibition assay in SK-N-SH cellular homogenates (tyramine to octopamine)
# Type: biochemical
# condition parameters: SK-N-SH cell homogenate, inhibitor 1 μM
readout label: SKNSH (1 μM), activity in % of control

>>> result("CCOC(=O)Cc1[nH]c(=S)n2c1C[C@@H](c1cc(F)cc(F)c1)C2 [Example 1]")
"37.9 % of control"
>>> result("NC(=O)Cc1[nH]c(=S)n2c1[C@@H]1C[C@]1(c1cc(F)cc(Cl)c1)C2 [Example 58]")
"9.3 % of control"
>>> result("CCCCN(C)C(=O)Cc1[nH]c(=S)n2c1[C@@H]1C[C@]1(c1cc(F)ccc1F)C2 [Example 38]")
"20.9 % of control"
>>> result("CS(=O)(=O)Cc1[nH]c(=S)n2c1C[C@@H](c1c(F)c(F)cc(F)c1F)C2 [Example 47]")
"62.9 % of control"
>>> result("NC(=O)Cc1[nH]c(=S)n2c1[C@@H]1C[C@]1(c1cc(Cl)ccc1F)C2 [Example 56]")
"5.2 % of control"
>>> result("O=C(O)c1[nH]c(=S)n2c1C[C@@H](c1cc(F)cc(F)c1)C2 [Example 43]")
"45.6 % of control"
>>> result("COC(=O)Cc1[nH]c(=S)n2c1[C@@H]1C[C@]1(c1cc(F)ccc1F)C2 [Example 4]")
"20.3 % of control"

###

Measured Plasma (0.1 μM), activity in % of control by item
# assay target: Dopamine beta hydroxylase (Homo sapiens, UniProt P09172)
# Construct: 125 μl of plasma; tissue Instituto Português do Sangue Transplantação; host or cells: human plasma from healthy donors
# Sequence (P09172 40-617 limits assumed): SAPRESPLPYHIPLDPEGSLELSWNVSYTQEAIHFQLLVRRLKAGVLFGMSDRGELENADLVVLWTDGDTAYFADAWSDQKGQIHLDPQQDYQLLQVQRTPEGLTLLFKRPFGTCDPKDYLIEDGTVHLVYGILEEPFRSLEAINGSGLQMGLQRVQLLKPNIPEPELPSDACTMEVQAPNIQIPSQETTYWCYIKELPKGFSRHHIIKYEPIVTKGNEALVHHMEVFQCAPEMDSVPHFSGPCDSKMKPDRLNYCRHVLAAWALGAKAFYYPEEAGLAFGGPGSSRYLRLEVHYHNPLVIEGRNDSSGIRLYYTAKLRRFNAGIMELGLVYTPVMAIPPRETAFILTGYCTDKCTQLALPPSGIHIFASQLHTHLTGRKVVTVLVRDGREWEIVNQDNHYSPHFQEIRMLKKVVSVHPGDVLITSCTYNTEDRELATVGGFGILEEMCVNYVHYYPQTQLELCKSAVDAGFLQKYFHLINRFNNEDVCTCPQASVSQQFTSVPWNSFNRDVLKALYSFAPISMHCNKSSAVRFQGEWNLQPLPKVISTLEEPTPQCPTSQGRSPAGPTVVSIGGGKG
# assay: Dopamine beta hydroxylase activity in human plasma
# Format: biochemical
# condition parameters: inhibitor 0.1 μM
readout label: Plasma (0.1 μM), activity in % of control

>>> result("Cn1c(CC(=O)N[C@@H]2CCOC2)c2n(c1=S)C[C@@H](c1c(F)c(F)cc(F)c1F)C2 [Example 243]")
"4.4 % of control"
>>> result("Cl.Fc1ccc(Br)cc1[C@]12C[C@H]1c1c(CCN3CCCC3)[nH]c(=S)n1C2 [Example 185]")
"30.9 % of control"
>>> result("CC(C)NC(=O)Cc1c2n(c(=S)n1C)C[C@H](c1c(F)ccc(Cl)c1F)C2 [Example 236]")
"51.0 % of control"
>>> result("Cn1c(CC(=O)NCC2CCCO2)c2n(c1=S)C[C@@H](c1c(F)c(F)cc(F)c1F)C2 (stereo in doubt) [Example 387]")
"43.7 % of control"
